assay: E. coli acrAB mutant growth effects, primary screen, E. coli filamentation inducers, strain DRC39, OD650, 24 h (AID 1178); details: higher = more signal, called active from +8 up or from −8 down;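 also: growth measured as culture turbidity by optical density at 650 nm; test concentration not given here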
Quantity: z-score

mol_smiles=COC(=O)[C@@]1(Cc2ccc(F)cc2)[C@H]2c3cc(C(=O)N(C)C)n(CCn4cc([N+](=O)[O-])nc4C)c3C[C@H]2CN1C(=O)c1ccccc1 data_value=-0.984
mol_smiles=CCCC[C@@H]1C[C@H]1[C@@H](NC(=O)c1ccc(C(F)(F)F)cc1)c1ccc(C(=O)OC)cc1 data_value=0.909
mol_smiles=CC(C)CNC(=O)[C@@H]1c2ccccc2C(=O)N(C2Cc3ccccc3C2)[C@H]1c1ccc(CO)cc1 data_value=0.725
mol_smiles=N[C@@H](Cc1ccccc1)Cn1cc(C2(O)CCCCC2)nn1 data_value=-0.0019
